# Test system: LOC_OS01G10900-cb004;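 further: purified Escherichia coli-expressed rice kinase domain construct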
# experiment: thermal shift delta Tm vs DMSO control; higher = stronger stabilization (binding)
# applied-conditions: 12.5 µM; protein concentration 2 µM
Each entry below carries its reported thermal shift delta Tm.
Number only, in °C; omit the unit.

COc1cc(Nc2ncc(F)c(Nc3ccc4c(n3)NC(=O)C(C)(C)O4)n2)cc(OC)c1OC : 0.54
CCCS(=O)(=O)Nc1ccc(F)c(C(=O)c2c[nH]c3ncc(Cl)cc23)c1F : 1.45

Proceeding to the next molecule to report its thermal shift delta Tm.
## Input Report thermal shift delta Tm for Nc1ncnc2n[nH]c(Nc3ccc(F)cc3)c12 please.
## Output 1.94

The reported measurements were obtained from the supplement of paper PMC9694430.
